System: MS2 coat protein
Test: apparent KD of MS2 coat protein; designed switch direction (-1 OFF switch, 1 ON switch): -1; higher = weaker reporter binding
Conditions: input ligand: none

CHAIN: ACGUACCUAGGAUAUACAUGGCCACAUGAUGCCAAGGAACAACUUGAGGAUCACCCAAGUAGAAGGAGGAAAAG [Riberace] (Eterna round: R97, puzzle: Exclusion 2)
apparent KD of MS2 coat protein / nM: 73.4
//
CHAIN: CCAUGGGUGCGAGGAUAUAGCCCAUGGGAAGAGCUAGAAGGCGCAGACAUGAGGAUCACCCAUGUGUUCAUGAGGAGGUGGACA (Eterna round: R96, puzzle: Exclusion NG 1)
apparent KD of MS2 coat protein / nM: 84.8
//
CHAIN: UAUUGCGAGUGAGGAUAUGACAUGAGGAUCACCCAUGUAAAGGGAGUUGGCUAUAUAGCAAGUUUUCAGAAGGCACUACUGUAU [JR_ExcNG2_Sub007] (Eterna round: R96, puzzle: Exclusion NG 2)
apparent KD of MS2 coat protein / nM: 66.4
//
CHAIN: ACUUAUAGAGGAUAUACAGAAUAUUACAUGAGGAUCACCCAUGUUCUUCAAUGUAUAUAUGUAGAAGGCUAAGGUU [Mat - Exclusion 5 - JL Mod - D7] (Eterna round: R97, puzzle: Exclusion 5)
apparent KD of MS2 coat protein / nM: 131
//
CHAIN: ACAUUGCGAGGAUAUACAUGAGGAUCACCCAUGUGGUGGCAGUUACGGUAGGACUAGUGUAGAAGGUGCCAUGG [EX3 #23] (Eterna round: R97, puzzle: Exclusion 3)
apparent KD of MS2 coat protein / nM: 401
//
CHAIN: AGUACUAUCACGAAAGUGUUAGUACAAUAAGCUUGUGAAACAUGAGGAUCACCCAUGUCCUCAUAAGCUCGUCUUAU [salish99_TOv2_r3_019] (Eterna round: R96, puzzle: Sensor v3, turn-off variant 2)
apparent KD of MS2 coat protein / nM: 17.8
//
CHAIN: UAGACUGAAGGAUAUACGUGGUAUCCGGCUAAUCAAGGUUCACAUGAGGAUCACCCAUGUAGAAGGUCAGCUCG [Eternabot (L2) Solution 18] (Eterna round: R97, puzzle: Exclusion 2)
apparent KD of MS2 coat protein / nM: 58.4
//
CHAIN: AGCUAGUCAGGAUAUUCUGUUAAUUACAUGAGGAUCACCCAUGUGAAUGGACAAGGGUGUGAAGAAGGGACUAGCG [Omei Ex5 A15] (Eterna round: R97, puzzle: Exclusion 5)
apparent KD of MS2 coat protein / nM: 248
//
CHAIN: ACAUGACUGCUAGGAUAUAGAUGACAUGAGGAUCACCCAUGUUGUCCCAUGUUGAUGGAAACCGACUAGAAGGAGCAGCAUAUG [Ex NG2 #11] (Eterna round: R96, puzzle: Exclusion NG 2)
apparent KD of MS2 coat protein / nM: 35
//
CHAIN: GUUUUCAGACGGAGAUCCUACAUGAGGAUCACCCAUGUCUCUCAAGCUAAUUGCUCGUCUUAUUCUCCUCUGUUCUC [Elimod 39 - Jieux - Sensor, turn-off variant 1] (Eterna round: R97, puzzle: Sensor, turn-off variant 1)
apparent KD of MS2 coat protein / nM: 41
//
CHAIN: AAACCCUGAGGAUAUGCAUAACAACAAAGCCUCACGUGCCAACAUGAGGAUCACCCAUGUAGAAGGCGGGCCAA [Mod R3 Insanara 18 - Jieux - Exclusion 2] (Eterna round: R97, puzzle: Exclusion 2)
apparent KD of MS2 coat protein / nM: 15.7
